B1: Azoarcus group I ribozyme (parent)
chain: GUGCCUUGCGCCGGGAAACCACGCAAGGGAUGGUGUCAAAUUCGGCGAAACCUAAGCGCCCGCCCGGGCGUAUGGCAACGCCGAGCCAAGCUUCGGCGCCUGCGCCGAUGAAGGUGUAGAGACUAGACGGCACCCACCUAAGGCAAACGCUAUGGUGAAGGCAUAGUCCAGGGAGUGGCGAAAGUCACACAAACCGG

Variants of: B1
Experiment: reverse-splicing fitness (ratio to wild type); higher = more active; in vitro selection; Mg2+ level not given
Below: a set of entries, each annotated with reported reverse-splicing fitness.
In your answer, state the number alone without any accompanying words.

Sample answers from the record:
variant_code="C82G A120U A145G C150G C169G U176A" property_measured="reverse-splicing fitness" assay_value=0.00901
variant_code="A111C A145U C150G C169U" property_measured="reverse-splicing fitness" assay_value=0.0178
variant_code="A111G A120U A145C C150U C169G U176A" property_measured="reverse-splicing fitness" assay_value=0.00436

// next item, reverse-splicing fitness requested
IN: GET /values?readout=reverse-splicing fitness&item= C82U A111U A120U A145C C150U C169A U176G
OUT: 0.00178
